Measured values drawn from patent US20210353579A1 for this set.

- protocolText: Distribution of prodrug and metabolites in tissues after application to the back of killed rats
- Format: in vivo
- experimentalConditions: Wistar, rat, 50 mg/kg, 3 h after 50 mg/kg prodrug citric acid salt on the back of killed rat, 37° C.; read-out: amount in Bone

smilesStr	concentration at 3 h, ng/g
O=C(O)c1ccccc1O	35000

---

- Test system: human skin tissue
- experimentalConditions: pH 7.4
measuredAttribute: In vitro penetration rate (apparent flux), prodrug compounds (μg/cm^2/h)

molecule	displayUnit	recordedResult
CC(=O)O.CCN(CC)CCOC(=O)C(C)c1cccc(C(=O)c2ccccc2)c1 (centres unmarked)	μg/cm^2/h	1150
CC(=O)O.CCN(CC)CCOC(=O)CC1=C(C)/C(=C/c2ccc([S+](C)[O-])cc2)c2ccc(F)cc21 (centres unmarked)	μg/cm^2/h	900
CC(=O)O.CCN(CC)CCOC(=O)COC(=O)Cc1c(C)n(C(=O)c2ccc(Cl)cc2)c2ccc(OC)cc12	μg/cm^2/h	1200
CC(=O)O.CCN(CC)CCOC(=O)C(C)c1ccc(-c2ccccc2)c(F)c1 (centres unmarked)	μg/cm^2/h	3500
CC(=O)O.CCN(CC)CCOC(=O)C1CCc2cc(C3CCCCC3)c(Cl)cc21 (centres unmarked)	μg/cm^2/h	4000

---

- protocolText: Plasma levels after transdermal administration to hairless mice
- Format: in vivo
- experimentalConditions: parent compound administered, hairless mice
measuredAttribute: Peak plasma concentration after parent compound (mg/L)

compound	displayUnit	recordedResult
Cc1cccc(Nc2ccccc2C(=O)O)c1C	mg/L	0.1
O=C(O)CCc1nc(-c2ccccc2)c(-c2ccccc2)o1 [Oxaprozin, oxaprozin, reference compound]	mg/L	10
CC(C(=O)O)c1ccc(C(=O)c2ccccc2)s1 (stereo not shown) [Tiaprofenic acid, tiaprofenic acid, reference compound]	mg/L	10
CC(C(=O)O)c1cccc(C(=O)c2ccccc2)c1 (stereo not shown) [Ketoprofen, 2-(3-benzoylphenyl) propionic acid, reference compound]	mg/L	1
O=C(O)c1cccnc1Nc1cccc(C(F)(F)F)c1	mg/L	0.1
CN1C(C(=O)Nc2ccccn2)=C(O)c2ccccc2S1(=O)=O	mg/L	0.1
CC(C(=O)O)c1ccc(-c2ccccc2)c(F)c1 (stereo not shown) [Flurbiprofen, flurbiprofen, reference compound]	mg/L	10

---

- Test system: human skin tissue
- experimentalConditions: human, 20 %, pH 7.4
measuredAttribute: In vitro penetration rate (apparent flux), parent compounds (μg/cm^2/h)

compound	comparativeSign	recordedResult
O=C(O)C1CCc2cc(C3CCCCC3)c(Cl)cc21 (centres unmarked)	=	40
CC(C(=O)O)c1cccc(Oc2ccccc2)c1 (centres unmarked) [Fenoprofen, 2-(3-phenoxyphenyl) propionic acid, reference compound]	<	1
C=CCOc1ccc(CC(=O)O)cc1Cl [Alclofenac, alclofenac, reference compound]	=	10
C=C(C)CNc1ccc(C(C)C(=O)O)cc1 (centres unmarked)	=	30
CC(C(=O)O)c1ccc2c(c1)CC(=O)c1ccccc1S2 (centres unmarked) [Zaltoprofen, zaltoprofen, reference compound]	=	30
CN1C(C(=O)Nc2ccccn2)=C(O)c2sc(Cl)cc2S1(=O)=O [Lornoxicam, lornoxicam, reference compound]	<	1
CC(C(=O)O)c1ccc2c(c1)Cc1cccnc1O2 (centres unmarked)	=	30
Cc1cc(NC(=O)C2=C(O)c3ccccc3S(=O)(=O)N2C)no1 [Isoxicam, isoxicam, reference compound]	<	1
CCc1cccc2c3c([nH]c12)C(CC)(CC(=O)O)OCC3 (centres unmarked)	=	10
COc1ccc2c(c1)c(CC(=O)OCC(=O)O)c(C)n2C(=O)c1ccc(Cl)cc1	=	10
O=C(O)c1ccccc1O	<	1
Cc1ccc2c(c1)CC(=O)c1cc(C(C)C(=O)O)ccc1O2 (centres unmarked) [Bermoprofen, bermoprofen, reference compound]	=	40
Nc1c(CC(=O)O)cccc1C(=O)c1ccccc1	=	10
CC(C(=O)O)c1ccc(-c2ccccc2)c(F)c1 (centres unmarked) [Flurbiprofen, flurbiprofen, reference compound]	=	30
CN1C(C(=O)Nc2ccccn2)=C(O)c2sccc2S1(=O)=O [Tenoxicam, tenoxicam, reference compound]	<	1
O=C(O)c1ccccc1Nc1cccc(C(F)(F)F)c1	=	10
Cc1ccc(C(=O)c2ccc(CC(=O)O)n2C)cc1	=	10
CN1C(C(=O)Nc2ccccn2)=C(O)c2ccccc2S1(=O)=O	<	1
CC(C)Cc1ccc(C(C)C(=O)O)cc1 (centres unmarked) [Ibuprofen, 2-(ρ-isobutylphenyl) propionic acid, reference compound]	=	50
CC(C(=O)O)c1ccc2oc(-c3ccc(Cl)cc3)nc2c1 (centres unmarked)	=	40
O=C(O)Cc1ccccc1Oc1ccc(Cl)cc1Cl	=	10
CC(C(=O)O)c1ccc(C(=O)c2ccccc2)s1 (centres unmarked) [Tiaprofenic acid, tiaprofenic acid, reference compound]	=	30
O=C(O)Cc1sc(-c2ccccc2)nc1-c1ccc(Cl)cc1 [Fentiazac, fentiazac, reference compound]	=	10
Cc1cccc(Nc2ccccc2C(=O)O)c1C	=	10
O=C(O)CCC(=O)c1ccc(-c2ccccc2)cc1 [Fenbufen, fenbufen, reference compound]	=	40
CC(C(=O)O)c1ccc(N2CC=CC2)c(Cl)c1 (centres unmarked) [Pirprofen, pirprofen, reference compound]	=	30
CC(C(=O)O)c1ccc(C(=O)c2cccs2)cc1 (centres unmarked) [Suprofen, suprofen, reference compound]	=	30
COc1ccc2c(c1)c(CC(=O)O)c(C)n2C(=O)c1ccc(Cl)cc1	=	10
CC(C(=O)O)c1ccc2c(c1)[nH]c1ccc(Cl)cc12 (centres unmarked)	=	40
O=C(O)c1cc(-c2ccc(F)cc2F)ccc1O [Diflunisal, 5-(2,4-difluorophenyl) salicylic acid, reference compound]	<	1
O=C(O)CCc1nc(-c2ccccc2)c(-c2ccccc2)o1 [Oxaprozin, oxaprozin, reference compound]	=	30
Cc1c(Nc2ncccc2C(=O)O)cccc1C(F)(F)F [Flunixin, flunixin, reference compound]	=	10

---

- protocolText: Solubility in water / aqueous solubility of HPPs and parent drugs
- experimentalConditions: product as prepared in Example 1
Solubility in water reference

compound	displayUnit	Solubility in water
CC(=O)O.CN(C)CCOC(=O)Cc1ccccc1Nc1c(Cl)cccc1Cl	mg/mL	410
CC(=O)O.CN(C)CCNC(=O)Cc1ccccc1Nc1c(Cl)cccc1Cl	mg/mL	450
CC(=O)O.CCN(CC)CCNC(=O)CCc1nc(-c2ccccc2)c(-c2ccccc2)o1	mg/mL	400
CC(=O)O.CCN(CC)CCOC(=O)C(C)c1ccc2c(c1)[nH]c1ccc(Cl)cc12 (stereo not drawn)	mg/mL	400
CC(=O)O.CN(C)CCSC(=O)Cc1ccccc1Nc1c(Cl)cccc1Cl	mg/mL	410
CC(=O)O.CCN(CC)CCOC(=O)Cc1ccccc1Nc1c(Cl)cccc1Cl	mg/mL	400

---

- System: mice
- protocolText: Analgesic activity, acetic acid writhing
- Format: in vivo
- experimentalConditions: 100 mg/kg transdermally, 30 min before acetic acid
measuredAttribute: No. of Writhing

compound	target	recordedResult
CC(=O)O.CCN(CC)CCOC(=O)C(C)c1ccc(N2CC=CC2)c(Cl)c1 (stereo not shown)	mice	14.0
CC(=O)O.CCN(CC)CCOC(=O)C(C)c1ccc2cc(OC)ccc2c1 (stereo not shown)	mice	17.1
CC(=O)O.CCN(CC)CCOC(=O)C(Cl)c1ccc(C2CCCCC2)c(Cl)c1 (stereo not shown)	mice	15.2
CC(=O)O.CCN(CC)CCOC(=O)CCC(=O)c1ccc(-c2ccccc2)cc1	mice	14.2
CC(=O)O.CCN(CC)CCOC(=O)CC1=C(C)/C(=C/c2ccc([S+](C)[O-])cc2)c2ccc(F)cc21 (stereo not shown)	mice	14.2
CC(=O)O.CCN(CC)CCOC(=O)C1CCn2c(C(=O)c3ccccc3)ccc21 (stereo not shown)	mice	16.1
CC(=O)O.CCN(CC)CCOC(=O)Cc1sc(-c2ccccc2)nc1-c1ccc(Cl)cc1	mice	16.1
CC(=O)O.CCN(CC)CCOC(=O)CC(O)c1ccc(-c2ccc(Cl)cc2)o1 (stereo not shown)	mice	15.6
CC(=O)O.CCN(CC)CCOC(=O)c1cc(-c2ccc(F)cc2F)ccc1O	mice	10.2
CC(=O)O.CCN(CC)CCOC(=O)C(C)c1ccc(-c2ccccc2)c(F)c1 (stereo not shown)	mice	15.6

---

t, time to peak plasma level after parent compound reference
- protocolText: Plasma levels after transdermal administration to hairless mice
- Assay type: in vivo
- experimentalConditions: parent compound administered (time when taken orally)
measuredAttribute: t, time to peak plasma level after parent compound

compound	recordedResult
O=C(O)c1ccccc1O	1 to 2 h
CC(C)Cc1ccc(C(C)C(=O)O)cc1 (centres unmarked) [Ibuprofen, 2-(ρ-isobutylphenyl) propionic acid, reference compound]	1 to 2 h
O=C(O)c1ccccc1Nc1cccc(C(F)(F)F)c1	2 to 4 h
CC(C(=O)O)c1ccc2oc(-c3ccc(Cl)cc3)nc2c1 (centres unmarked)	2 to 4 h
CC(C(=O)O)c1ccc(N2Cc3ccccc3C2=O)cc1 (centres unmarked)	2 to 4 h
Cc1cnc(NC(=O)C2=C(O)c3ccccc3S(=O)(=O)N2C)s1 [Meloxicam, meloxicam, reference compound]	2 to 4 h
Cc1ccc2c(c1)CC(=O)c1cc(C(C)C(=O)O)ccc1O2 (centres unmarked) [Bermoprofen, bermoprofen, reference compound]	2 to 4 h
CC(=O)Oc1ccccc1C(=O)O [Aspirin, acetylsalicylic acid, reference compound]	~2 h
